Tested on: MCF7
Assay: Antiproliferative activity against estrogen positive human MCF7 cells assessed as inhibition of cell growth upto 50 uM incubated for 72 hrs by cell counting analysis
Assay type: functional, cell-based
Activity calls are given as the source filed them. The calls are words filed in the database; no cut-off is given here.

[
  {
    "item smiles": "C#CCOc1ccc(C(=O)c2ccc(Cn3ccnc3)cc2)cc1",
    "target entity": "MCF7",
    "inhibition": "inactive"
  },
  {
    "item smiles": "CCCCCOc1ccc(C(=O)c2cccc(Cn3ccnc3)c2)cc1",
    "target entity": "MCF7",
    "inhibition": "inactive"
  },
  {
    "item smiles": "CCC#CCOc1ccc(C(=O)c2ccc(Cn3ccnc3)cc2)cc1",
    "target entity": "MCF7",
    "inhibition": "inactive"
  },
  {
    "item smiles": "CCC#CCOc1ccc(C(=O)c2cccc(Cn3ccnc3)c2)cc1",
    "target entity": "MCF7",
    "inhibition": "inactive"
  },
  {
    "item smiles": "C#CCOc1ccc(C(=O)c2cccc(Cn3ccnc3)c2)cc1",
    "target entity": "MCF7",
    "inhibition": "inactive"
  },
  {
    "item smiles": "CCCOc1ccc(C(=O)c2cccc(Cn3ccnc3)c2)cc1",
    "target entity": "MCF7",
    "inhibition": "inactive"
  },
  {
    "item smiles": "CCCCCOc1ccc(C(=O)c2ccc(Cn3ccnc3)cc2)cc1",
    "target entity": "MCF7",
    "inhibition": "inactive"
  },
  {
    "item smiles": "COc1ccc(C(=O)c2cccc(Cn3ccnc3)c2)cc1",
    "target entity": "MCF7",
    "inhibition": "inactive"
  },
  {
    "item smiles": "O=C(c1ccc(O)cc1)c1cccc(Cn2ccnc2)c1",
    "target entity": "MCF7",
    "inhibition": "inactive"
  },
  {
    "item smiles": "CCCOc1ccc(C(=O)c2ccc(Cn3ccnc3)cc2)cc1",
    "target entity": "MCF7",
    "inhibition": "inactive"
  }
]
